Values from the supplement of paper PMC8882468

# Test system: HCI-016 (organoid from a triple-negative breast cancer xenograft)
# measurement.description: CTG-3D luminescence at 96 h relative to day-0 seeding control (ratio to day 0); higher = more growth / less cytotoxicity; PDxO 3D drug screen, 96 h, CTG-3D normalised to day-0 seeding control.
# study.conditions: 1 µM; days in culture: 199
Decision: CTG-3D luminescence at 96 h compared against 1; not below it gives yes, below it gives no.

Consider the worked cases shown below.
test.smiles	assigned.category
CS(=O)(=O)c1ccc(C(=O)Nc2ccc(Cl)c(-c3ccccn3)c2)c(Cl)c1	yes
C[C@H](NC(=O)CCC(F)(F)F)C(=O)N[C@@H]1C(=O)N(CCO)c2ncccc2-c2ccccc21	yes
CCN1CCN(Cc2ccc(Nc3ncc(F)c(-c4cc(F)c5nc(C)n(C(C)C)c5c4)n3)nc2)CC1	yes
COc1cccc2c1C(=O)c1c(O)c3c(c(O)c1C2=O)C[C@@](O)(C(=O)CO)C[C@@H]3O[C@H]1C[C@H](N)[C@H](O)[C@H](C)O1	no

Next item in the queue.
Item "CC1(C)CCC(c2ccc(Cl)cc2)=C(CN2CCN(c3ccc(C(=O)NS(=O)(=O)c4ccc(N[C@H](CCN5CCOCC5)CSc5ccccc5)c(S(=O)(=O)C(F)(F)F)c4)cc3)CC2)C1" with CTG-3D luminescence at 96 h of 1 or above?
yes

###

# System: HCI-001 (organoid from a triple-negative breast cancer xenograft)
# measurement.description: CTG-3D luminescence at 96 h relative to day-0 seeding control (ratio to day 0); higher = more growth / less cytotoxicity; PDxO 3D drug screen (set 2), 96 h, CTG-3D normalised to day-0 seeding control.
# study.conditions: 0.00025 µM; days in culture: 397
attribute.measured: CTG-3D luminescence at 96 h
// print number alone

Known results for compounds:
compound	assay.system	readout.value
CCOc1ccn(-c2ccc(F)cc2)c(=O)c1C(=O)Nc1ccc(Oc2ccnc(N)c2Cl)c(F)c1 [ASLAN002]	HCI-001	2.1
CC(=O)O[C@@]12CO[C@@H]1C[C@H](O)[C@@]1(C)C(=O)[C@H](O)C3=C(C)[C@@H](OC(=O)[C@H](O)[C@@H](NC(=O)OC(C)(C)C)c4ccccc4)C[C@@](O)([C@@H](OC(=O)c4ccccc4)[C@H]21)C3(C)C [docetaxel]	HCI-001	1.7
O=C(c1cc(Cc2n[nH]c(=O)c3ccccc23)ccc1F)N1CCN(C(=O)C2CC2)CC1 [olaparib]	HCI-001	2.02

For the next question, use this compound.
Answer with reported CTG-3D luminescence at 96 h of Cc1c(CN2CCN(C(=O)[C@H](C)O)CC2)sc2c(N3CCOCC3)nc(-c3cnc(N)nc3)nc12 [apitolisib]
1.88

###

List of CTG-3D luminescence at 96 h values.
# Test system: HCI-019 (organoid from a triple-negative breast cancer xenograft)
# measurement.description: CTG-3D luminescence at 96 h relative to day-0 seeding control (ratio to day 0); higher = more growth / less cytotoxicity; PDxO 3D drug screen, 96 h, CTG-3D normalised to day-0 seeding control.
# study.conditions: 10 µM; days in culture: 152
Hey, just send me the number, nothing else.

State its CTG-3D luminescence at 96 h: O=C(O)C1(C(=O)O)CCC1.[NH2-].[NH2-].[Pt+2] [carboplatin]
1.4

Please give measured CTG-3D luminescence at 96 h of the following entry: CN(Cc1cnc2nc(N)nc(N)c2n1)c1ccc(C(=O)N[C@@H](CCC(=O)O)C(=O)O)cc1 [methotrexate]
2.28

Specify reported CTG-3D luminescence at 96 h for the molecule shown: CCN1CCN(Cc2ccc(Nc3ncc(F)c(-c4cc(F)c5nc(C)n(C(C)C)c5c4)n3)nc2)CC1 [abemaciclib]
0.0403

Please look at this molecule and report its CTG-3D luminescence at 96 h: NC(=O)Nc1cc(-c2cccc(F)c2)sc1C(=O)N[C@H]1CCCNC1 [AZD7762]
0.149
